B1: Transitional endoplasmic reticulum ATPase, residues 26 to 106; numbered along this chain, P55072 (parent)
chain: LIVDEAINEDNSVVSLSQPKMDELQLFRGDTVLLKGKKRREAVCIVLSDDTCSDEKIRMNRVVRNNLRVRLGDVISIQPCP

# Variants of: B1
# assay text: abundance fitness (aPCA) (normalised: wild type 0, dead -1); higher = more abundant; growth selection in yeast, the domain comes from the species named
# conditions: Homo sapiens
Decide by abundance fitness: equal to or exceeding -0.03 means MET, less means NOT MET.

mutant label: I75H
label class: NOT MET

mutant label: Q18H
label class: MET

mutant label: D49S
label class: MET

mutant label: S48E
label class: MET

mutant label: R28V
label class: MET

mutant label: L26V
label class: MET

mutant label: S53P
label class: NOT MET

mutant label: K20F
label class: NOT MET

mutant label: V32C
label class: MET

mutant label: R68D
label class: NOT MET

mutant label: T51G
label class: MET

mutant label: L34A
label class: NOT MET

mutant label: R70L
label class: MET

mutant label: R28L
label class: MET

mutant label: S48G
label class: MET

mutant label: C44L
label class: MET

mutant label: L33I
label class: NOT MET

mutant label: R40L
label class: NOT MET

mutant label: C52F
label class: NOT MET

mutant label: L34P
label class: NOT MET

mutant label: A42R
label class: MET

mutant label: L67E
label class: NOT MET
